All values here come from PubChem BioAssay AID1421.

# assayed_target: UniProtKB P43116
# experiment_notes: EP2 receptor modulators, dose response, cell-based, human EP2, PGE2 EC50 shift (AID 1421)
# conditions_used: EP2-expressing cells, PGE2 EC50 shift by compound; measured here: PGE2 EC50 at 6.7 uM compound
measured_quantity: PGE2 EC50 with compound (nM)
Express it in nM; write the number only.

Q. Requested field: PGE2 EC50 with compound. Item: C=CCC(NCc1ccccc1)c1ccc(Cl)cc1 (centres undefined)
A. 1.14

Q. Here is the next compound: Cc1cccc(C(=O)Nc2cccc(OCC(=O)O)c2)c1
A. 6.72

Q. Then O=C(Nc1ccccc1N1CCCCC1)c1cccc([N+](=O)[O-])c1 ?
A. 0.9

Q. Also check Cc1ccc(CSc2nc3ccccc3cc2C=O)cc1
A. 0.73

Q. Same again, this time with CC(C)OC(=O)c1c(NC(=O)CCn2nnc3ccccc32)sc2c1CCCC2
A. 1

Q. And what about the compound CC(C)(C)n1nnnc1C(c1ccncc1)N(Cc1ccccc1)Cc1ccco1 (centres undefined) ?
A. 1.03

Q. Now consider CN=C1CC(SC)=C1c1ccc(C)cc1 .
A. 0.84

Q. Try CC1CCC(C(C)C)C(OC(=O)COC(=O)c2ccc(=O)[nH]c2)C1 (centres undefined) next.
A. 1.4

Q. Again, but for O=C(O)CCN1C(=O)/C(=C/c2cn(-c3ccccc3)nc2-c2cccs2)SC1=S
A. 0.33

Q. Same question, O=c1c2ccccc2c(-c2ccccc2)nn1Cc1ccccc1 this time
A. 2.8

Q. Follow-up entry: c1ccc(CCc2ccccc2-c2nc(-c3ccccn3)no2)cc1
A. 0.32

Q. # iterate: O=C(CN1CCCCCCC1)Nc1ccc(Cl)cc1Cl
A. 1.11

Q. Also C=CCSc1nc2ccccc2c(=O)n1Cc1ccccc1 ?
A. 0.72

Q. Now give it for N#CCCSc1ncnc2c1oc1ccccc12 too.
A. 1.52

Q. Another compound to look at: CCCSc1ncnc2c1oc1ccccc12
A. 0.69

Q. And then COC(=O)C1=C(C)N(C)C(C)=C(C(=O)OC)C1c1cccc(Br)c1 , what is it?
A. 0.97

Q. Then CCCc1cc(-c2nc(N)ncc2-c2ccc3c(c2)OCCCO3)c(O)cc1OC ?
A. 0.86

Q. And what about the compound CCCn1c(SCC(=O)Nc2sc(C)c(C)c2C(=O)OCC)nc2c1c(=O)n(C)c(=O)n2C ?
A. 1.35

Q. Now give it for S=C(Nc1ccccc1Cl)N(Cc1ccccc1)Cc1ccccn1 too.
A. 1.62

Q. Try this compound next: CCOc1ccc(-c2nn3c(-c4ccccc4)nnc3s2)cc1
A. 1.04

Q. Let us now turn to Brc1ccc(-c2ccc(/C=N/Nc3nc(N4CCOCC4)nc(N4CCOCC4)n3)o2)cc1
A. 1.01

Q. Moving on to CCc1ccc(Nc2oc(C)cc(=O)c2C(C)=O)cc1
A. 1.55

Q. Then what about the compound Fc1ccc(C(c2ccc(F)cc2)N2CCN(C/C=C/c3ccccc3)CC2)cc1 ?
A. 1.19

Q. Also CC(C)CCn1c(O)c(N=NC(=O)c2ccco2)c2ccccc21 , if possible.
A. 1.03

----------
# assayed_target: Prostaglandin E2 receptor EP2 subtype (Homo sapiens)
# experiment_notes: EP2 receptor modulators, dose response, cell-based, human EP2, PGE2 EC50 shift (AID 1421)
# conditions_used: EP2-expressing cells, PGE2 EC50 shift by compound; measured here: PGE2 EC50 at 6.7 uM compound
Exercise: state measured PGE2 EC50 with compound for each of the compounds provided.
Provide the reading as a plain figure in nM.

Q. Can you look up the measured PGE2 EC50 with compound of CCOC(=O)c1cc(C)sc1NC(=O)c1ccc(Cl)s1 for me?
A. 0.73

Q. Also check Cc1ccc(NP(=O)(Oc2ccccc2F)Oc2ccccc2F)cc1C
A. 1.35

Q. What do we get for COc1ccc(-n2c(-c3cccc(OC)c3)nc(=S)c3c2CCCC3)cc1 ?
A. 2.89

Q. Try the compound C[C@H](C(=O)c1ccccc1)[C@@H](c1ccccc1)N1CCOCC1
A. 1.43

Q. Same again, this time with CC(=O)Oc1ccc2ccccc2c1C(NC(=O)Cc1ccccc1)c1ccccc1 (stereo not drawn)
A. 1.1

Q. Param item: COc1ccc(C(=O)Nc2ccccc2N2CCCCC2)cc1[N+](=O)[O-]
A. 1.01

Q. Now this one: CCOP(=S)(OCC)Oc1nc(Cl)c(Cl)cc1Cl
A. 0.91

Q. Field entry: COc1ccccc1/C=N/N(C(C)=O)c1nc(-c2ccc(F)cc2)cs1
A. 1.1

Q. Lookup COc1ccc(C(=O)NCC(=O)n2nc(C)cc2C)cc1OC
A. 1.6

Q. Try this compound next: CCOC(=O)n1c(=O)n(Cc2ccc(Cl)c(Cl)c2)c2ccccc21
A. 0.9

Q. And the next one, Cn1c(=O)c2c(nc(SCC(=O)N3CCc4ccccc4C3)n2C)n(C)c1=O ?
A. 1.51

Q. // repeat for CCOC(=O)c1sc2nccc(N(C)C)c2c1N=CNOCc1ccccc1 and report
A. 1.25

Q. And CCOC(=O)c1c(NC(=O)CN2CCCCC2)sc(C)c1C ?
A. 0.89

Q. And Cc1ccc(-c2nn3c(C)nnc3s2)cc1NCc1c(F)cccc1Cl ?
A. 0.91

Q. Follow-up entry: CCCOP(=O)(OCCC)C(Nc1cccc(C(F)(F)F)c1)c1ccc(C)cc1 (stereo not drawn)
A. 1.37

Q. Try the compound O=C(COc1cccc2ccccc12)N1c2ccccc2CCc2ccccc21
A. 1.19

Q. Next compound: C=CCn1c(=S)[nH]c2sccc2c1=O
A. 1.53

Q. Now consider COc1ccc(N=Cc2cc(Cc3ccccc3Cl)cc([N+](=O)[O-])c2O)cc1OC and answer again.
A. 0.65

Q. Request: Cn1c(=O)[nH]c(=O)c2c1nc(CN1CCN(c3ccccc3F)CC1)n2CCCc1ccccc1
A. 0.83

Q. Now consider C=CCOc1nc(-c2ccncc2)nc2ccccc12 .
A. 2.48

Q. Now consider COc1ccc(C(=O)COC(=O)C(CCSC)NS(=O)(=O)c2ccc(Cl)cc2)cc1 (stereo not drawn) .
A. 2.2

Q. Quick one: CC(C)NC(=S)N/N=C1\CCCCC1C1CCCCC1 (stereo not drawn)
A. 1.34

Q. Same read-out for c1ccc(-c2noc(-c3cccc4ccccc34)n2)cc1 ?
A. 1.18

Q. Then FC(F)(F)c1cc(-c2ccccc2)nc(N2CCOCC2)n1 ?
A. 1.59

Q. What do you get for COc1ccc(C(=O)NCCCN2CCOCC2)cc1OC ?
A. 0.99

Q. Try the compound Cc1ccccc1/C=C/c1nc2ccccc2c(=O)n1CCc1ccccc1
A. 1.38

Q. Param item: CCCCc1n[nH]c(=S)n1Cc1ccc(Cl)cc1
A. 1.57

Q. Try O=C(O)c1ccc(-c2nc(-c3cccc(C(F)(F)F)c3)cs2)cc1 next.
A. 1.19

Q. Would you mind doing CCOC(=O)c1c(NC(=O)Cc2cccs2)sc(C)c1C as well?
A. 0.87

Q. Same lookup for COc1cc2c(cc1OC)CN(c1ccc(-c3ccccc3OC)nn1)CC2 , please.
A. 1.64

Q. Same question, c1ccc(Cc2nnc(Sc3ccccc3)c3ccccc23)cc1 this time
A. 2.76

Q. Now consider CCOC(=O)c1c(-c2cccs2)csc1NC(=O)CN1CCOCC1 and answer again.
A. 0.99

Q. How about this compound: CCOC(=O)c1c(NC(=O)CN2CCN(C(=O)c3ccco3)CC2)sc2c1CCCC2
A. 0.85

Q. Please do the same for O=C(Nc1ccccc1N1CCCCC1)c1ccc2nccnc2c1 as well.
A. 1.35

Q. Further, for CCOC(=O)c1[nH]c2ccc(OC)cc2c1NS(=O)(=O)c1ccc(Cl)s1 ?
A. 2.87

Q. Another: COC(=O)c1[nH]c2ccccc2c1NS(=O)(=O)c1ccc(F)c(C)c1
A. 0.88

Q. Cool, now C[C@H]1CC[C@@H](C(C)(C)O)CC2=C1CC[C@@H]2C
A. 1.06

Q. Record: COc1ccc2c(-c3ccccc3)cc(N3CCOCC3)nc2c1
A. 0.74

----------
# assayed_target: Prostaglandin E2 receptor EP2 subtype (Homo sapiens) (UniProt P43116)
# Sequence (P43116 whole entry, looked up): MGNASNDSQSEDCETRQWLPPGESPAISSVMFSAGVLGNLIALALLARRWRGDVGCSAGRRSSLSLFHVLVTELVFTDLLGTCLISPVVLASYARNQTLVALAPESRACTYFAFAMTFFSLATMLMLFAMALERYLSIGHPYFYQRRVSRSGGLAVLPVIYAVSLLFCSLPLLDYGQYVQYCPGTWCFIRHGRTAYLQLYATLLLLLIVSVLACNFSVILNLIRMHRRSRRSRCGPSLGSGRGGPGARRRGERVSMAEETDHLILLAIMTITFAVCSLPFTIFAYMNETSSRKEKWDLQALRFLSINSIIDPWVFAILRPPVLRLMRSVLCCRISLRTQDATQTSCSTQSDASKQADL
# experiment_notes: EP2 receptor modulators, dose response, cell-based, human EP2, PGE2 EC50 shift (AID 1421)
# conditions_used: EP2-expressing cells, PGE2 EC50 shift by compound; measured here: PGE2 EC50 at 6.7 uM compound
measured_quantity: PGE2 EC50 with compound

Q. Which measured PGE2 EC50 with compound value corresponds to COC(=O)c1ccc(-c2ccco2)n1Cc1cccc(C)c1 ?
A. 2.63 nM

Q. One more compound: CCCSc1nc(N2CCOCC2)c2c(c1C#N)CCCC2
A. 1.06 nM

Q. And Cc1ccccc1-n1c(=O)[nH]c(=O)c2c(N)c(C(=O)c3ccc(Cl)cc3)sc21 ?
A. 0.86 nM

Q. Follow-up entry: Cc1ccc(Cn2c(=O)n(Cc3ccco3)c(=O)c3ccccc32)cc1
A. 0.78 nM

Q. Field entry: CC1(C)OC(c2ccccc2)=C/C(=C/C=Nc2ccccc2)O1
A. 0.99 nM

Q. Now consider CCOC(=O)c1c(NC(=O)c2cccs2)sc2c1CCCC2 and answer again.
A. 0.81 nM

Q. Lookup CCc1c(C)nc2ccc(Br)cc2c1SCCC#N
A. 2.61 nM

Q. Another: COC(=O)c1c(C)nc2ccccc2c1-c1ccccc1
A. 1.54 nM

Q. Request: O=c1cc2c(nn1Cc1c(Cl)cccc1Cl)-c1ccccc1CC2
A. 0.79 nM

Q. Next up: CC(C)CCn1c(-c2nonc2N)nc2ccccc21
A. 1.49 nM

Q. Here is the next compound: Cc1ccc(-c2nc3ccccc3nc2Cl)cc1
A. 0.49 nM

Q. Repeat with O=c1c2ccccc2nc(N2CCCC2)n1-c1ccc(Cl)cc1
A. 2.64 nM

Q. Now give it for Cc1cc2cc3c(cc2nc1SCC(=O)OC(C)C)OCO3 too.
A. 0.8 nM

Q. Same question for COC(=O)CSc1nc(-c2ccccc2)nc2ccccc12 please.
A. 1.02 nM

Q. Try this compound next: C/C=C/Cn1c(SCc2ccc(C)cc2)nc2c1c(=O)[nH]c(=O)n2C
A. 0.78 nM

Q. Try this compound too: CCOP(=O)(OCC)c1nc(-c2cccc3ccccc23)oc1NCc1ccccc1
A. 2.48 nM

Q. Record: CCOC(=O)c1c(NC(=O)c2ccncc2)sc(C)c1C
A. 1 nM

Q. Also CC(Cc1ccccc1)NC(=O)C1(c2ccccc2)CCOCC1 (stereo not drawn) , if possible.
A. 1.2 nM

Q. Next: O=c1c(C=NCc2ccccc2)c(NCc2ccccc2)nc2ccccn12
A. 0.96 nM

Q. Next compound: COC(=O)c1c(NC(=O)CSc2nnc(-c3ccco3)n2Cc2ccccc2)sc(C)c1C
A. 0.85 nM

Q. // repeat for c1ccc(C2=Nc3ccccc3NC(c3ccccc3)C2)cc1 (stereo not drawn) and report
A. 2.58 nM

Q. Repeat for the following compound: CC(C)Sc1cc(N2CCOCC2)nc(-c2ccc(Cl)cc2)n1
A. 1.02 nM

Q. Do the same for O=C(COc1ccc(Br)cc1)Nc1ccc(-c2nnc(-c3ccco3)o2)cc1 please
A. 0.9 nM

Q. And what about the compound CCCCc1nc(SCCOC)c2c(=O)n(C)c(=O)n(C)c2n1 ?
A. 1.42 nM

Q. For N/C(CSc1nc(-c2ccccc2)c(-c2ccccc2)o1)=N\O then?
A. 1.14 nM

Q. Input O=C(CSc1nnc(-c2ccc(Cl)cc2)n1Cc1ccco1)c1cccs1
A. 2.65 nM

Q. Then what about the compound c1ccc(-c2noc(-c3ccccc3-c3ccccc3)n2)cc1 ?
A. 0.84 nM

Q. Another compound to check: O=C(CSc1nc(Cc2ccccc2)nc2ccccc12)c1ccc2c(c1)OCCO2
A. 1.23 nM

Q. Could you do the same for Cc1ccccc1CSCC(=O)Nc1ccccc1-c1ccccc1 , please?
A. 1.02 nM

Q. Would you mind doing Cc1nc(NC(C)c2ccccc2)c2c3c(sc2n1)CCC3 (stereo not drawn) as well?
A. 0.78 nM

Q. Likewise for CCCCCCCCCc1ccc(O)cc1 ?
A. 0.74 nM

Q. Also need CN(CC(=O)Nc1ccccc1-c1ccccc1)C1CCCCC1 , thanks.
A. 0.51 nM

Q. Next record, please: O=c1c2c(n3nnnc3n1-c1ccccc1)-c1ccccc1CC21CCCC1
A. 1.01 nM

Q. Item: Cc1sc(NC(=O)Cc2ccc3c(c2)OCO3)nc1-c1ccc2c(c1)CCN2C(=O)c1cccc(F)c1
A. 0.97 nM

Q. Do the same for Cn1c(CNc2ccc(F)cc2)nnc1SCC(=O)NNC(=O)Cc1ccccc1 please
A. 1.63 nM

Q. Item: O=C(CN1CCCCC1)N1c2ccccc2Sc2ccc(C(F)(F)F)cc21
A. 1.45 nM

Q. Same for Brc1cccc(-c2nnc(SCc3ccon3)n2-c2ccccc2)c1
A. 1.06 nM

Q. Next record, please: CC(=O)C1CC[C@H]2C3CC[C@H]4C[C@H](O)CC[C@]4(C)C3CC[C@]12C (stereo partly drawn)
A. 0.89 nM
